system: synthetic Aβ1–42 fibrils (Homo sapiens)
Sequence (P05067 672-713 limits assumed): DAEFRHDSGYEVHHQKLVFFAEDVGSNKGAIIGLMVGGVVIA
method notes: biochemical
Property: Ki; scope: individual compounds
measure name: Ki

>>> recorded_measurement("COc1ccc2c(c1)Sc1cc([N+](=O)[O-])ccc1N2 [SIL5]")
"110 nM"
>>> recorded_measurement("O=[N+]([O-])c1ccc2c(c1)Sc1ccccc1N2 [SIL3B]")
"71.5 nM"
>>> recorded_measurement("O=[N+]([O-])c1ccc2c(c1)Sc1cc(Br)ccc1N2 [SIL22]")
"102 nM"

* * *

Let's look at some compounds and their measured Ki.
system: Human PD brain homogenate (insoluble fraction) (Homo sapiens, UniProt P37840)
method notes: biochemical
measure name: Ki (nM)

>>> recorded_measurement("CNc1ccc(-c2nc3ccc(O)cc3s2)cc1")
99.2
>>> recorded_measurement("O=C(O)c1cc(/N=N/c2ccc(-c3ccc(/N=N/c4ccc(O)c(C(=O)O)c4)cc3)cc2)ccc1O")
367
